test: Caspase-3/7 induction in CHO-K1 cells by small molecules, qHTS cell viability counter screen (AID 1346979); details: CellTiter-Fluor fluorescence, 17 h; series mostly up to 92.4 µM; note: nearly all actives have a fitted effect of over 35% in size
Records with an inconclusive call do not appear. Activity calls are given as the source filed them. Calls come from the whole dose curve; as a rule, active = well fitted cell-killing curve with a large enough effect in the repeat runs; inconclusive = weak or mixed curves, or effect the other way; inactive = no such curve, though single readings can be large or run the other way.
Hello, when you answer, please use one of the following outcomes: 1 for active, 0 for inactive

                                   molecule  discrete_label
0         O=C1c2ccccc2C(=O)C1c1ccc2ccccc2n1               1
1  N#C[C@@H]1CC(F)(F)CN1C(=O)CNC1CC2CCC(C1)N2c1ncccn1 (some centres not stated)               0

**Query** Entry CCCCOc1ccc(N)cc1 : call = ?
**Result** 0

**Query** // same read-out, input: OCCCO
**Result** 0

**Query** // same read-out, input: COc1cc(CNC(=O)CCCC/C=C/C(C)C)ccc1O
**Result** 0

**Query** // same read-out, input: COc1ccc(/C=C/c2cc(OC)cc(=O)o2)cc1
**Result** 0

**Query** // same read-out, input: CCCCCCCCCCCCSC#N
**Result** 0

---

Experiment: qHTS assay to identify small molecule antagonists of the estrogen related receptor signaling pathway with the pleiotropic PPARgamma coactivator (PGC) from Tox21 10K library (AID 1224841); note: actives are mostly falling curves and most rising ones were filed inactive; nearly all actives have a fitted effect of over 50% in size
Settings: PGC/ERR reporter cell line, ONE-Glo luciferase, 18 h; series mostly up to 92.4 µM
Description: U.S. Tox21 Program National Center for Advancing Translational Sciences [NCATS] NIH Chemical Genomics Center [NCGC] U.S. Environmental Protection Agency [EPA] National Institutes of Environmental Health Sciences [NIEHS] National Toxicology Program [NTP] U.S. Food and Drug Administration [FDA] Tox21 Assay Overview: Estrogen related receptors (ERRs), the first orphan nuclear receptors discovered, play an important role in the control of cellular energy metabolism. […]
Inconclusive results are not listed. Calls of active or inactive are those of the source. How the calls were made is not given here.
Hello, when you answer, please use one of the following outcomes: Yes (active), No (inactive)

>>> print(df.to_string())
                                   molecule  discrete_label
0  O=C(N[C@@H](Cc1ccccc1)[C@@H](O)C(=O)N1C[C@@H](O)[C@@H](O)C1)c1cc2cc(Cl)ccc2[nH]1             Yes
1                          CCCCOc1ccc(N)cc1              No
2  CCC1=C(C)CN(C(=O)NCCc2ccc(S(=O)(=O)NC(=O)NC3CCC(C)CC3)cc2)C1=O (stereo not drawn)              No

**Query** Entry CC(C)Oc1ccccc1O : call = ?
**Result** No

**Query** // same read-out, input: CCOc1ccc(NC(C)=O)cc1N
**Result** No

**Query** // same read-out, input: CCCCCCCCCCCCSC#N
**Result** No

**Query** // same read-out, input: CC(=O)Oc1cccc2c1C(=O)c1c(OC(C)=O)cc(C(=O)O)cc1C2=O
**Result** Yes

**Query** // same read-out, input: CC(CC(C#N)(c1ccccc1)C(C)C)N(C)C (stereo not drawn)
**Result** No

---

assay: qHTS assay for identifying genotoxic compounds that show differential cytotoxicity against isogenic chicken DT40 cell lines with known DNA damage response pathways - Rad54/Ku70 mutant cell line (AID 743015); conditions: DT40 Rad54/Ku70 mutant viability, CellTiter-Glo, 40 h; series mostly up to 66.8 µM; note: nearly all actives have a fitted effect of over 60% in size
Records with an inconclusive call do not appear. The source made the active and inactive calls. Calls come from the whole dose curve; as a rule, active = well fitted cell-killing curve with a large enough effect in the repeat runs; inconclusive = weak or mixed curves; inactive = no such curve, though single readings can be large or run the other way.
Hello, when you answer, please use one of the following outcomes: True = active, False = inactive

MOL	DISCRETE LABEL
Cc1ccc(S(=O)(=O)NC(=O)NC2CCCC2)cc1	False
O=C(NC1CCN(CCc2c[nH]c3ccccc23)CC1)c1ccccc1	True

Field: next molecule
**Query** Entry C[C@H](CN1CCCC1)C(=O)c1ccc(C(F)(F)F)cc1 : call = ?
**Result** True
